settings: in toluene, 294.55 K
readout.name: solubility (mole fraction)

Ask | Using the record for Nc1ccc(Sc2ccc([N+](=O)[O-])cc2)cc1 , state its measured solubility (mole fraction).
Reply | 0.0214

* * *

details: in toluene, 299.65 K
readout.name: solubility (mole fraction)
Form field (numeric): enter value without unit.

Ask | Using the record for Nc1ccc(Sc2ccc([N+](=O)[O-])cc2)cc1 , state its measured solubility (mole fraction).
Reply | 0.0241

* * *

conditions: in ethyl acetate, 309.15 K
readout.name: solubility (mole fraction)
Form field (numeric): enter value without unit.

Ask | Using the record for Nc1ccc(Sc2ccc([N+](=O)[O-])cc2)cc1 , state its measured solubility (mole fraction).
Reply | 0.0766

Each recorded value in this set is attributed to BigSolDB 2.1.
